tested on: L1210 leukemia ip in BDF1 mice, survival T/C; test: NCI In Vivo Anticancer Drug Screen. Data for tumor model L1210 Leukemia (intraperitoneal) in B6D2F1 (BDF1) mice; settings: endpoint: mean survival time; dose: 200.0 mg/kg/injection; schedule: Q01DX009 (ip); vehicle: saline with Tween-80; higher = longer survival
Inconclusive results and toxic doses are left out.
measured_quantity: T/C

>>> df
                                   compound                             target_system  recorded_measurement
0  OC1/C(=C/c2ccccc2)c2cccc3cccc1c23 (stereo not given)  L1210 leukemia ip in BDF1 mice, survival T/C       93 % of control
1  Cc1nc2ccccc2c(=O)n1NC(=O)c1cc([N+](=O)[O-])cc([N+](=O)[O-])c1  L1210 leukemia ip in BDF1 mice, survival T/C       97 % of control
2   O=C(CCl)NC(CO)C(=O)O (stereo not given)  L1210 leukemia ip in BDF1 mice, survival T/C       87 % of control
3                CCCC1(CCC)OOC(CCC)(CCC)OO1  L1210 leukemia ip in BDF1 mice, survival T/C      110 % of control
4  O=[N+]([O-])CC(NNC(C[N+](=O)[O-])C(Cl)(Cl)Cl)C(Cl)(Cl)Cl (stereo not given)  L1210 leukemia ip in BDF1 mice, survival T/C       91 % of control
5  O=[N+]([O-])c1cccc(CO)c1-c1c(CO)cccc1[N+](=O)[O-]  L1210 leukemia ip in BDF1 mice, survival T/C      102 % of control
6     O=C(NCc1cnccn1)c1ccc([N+](=O)[O-])cc1  L1210 leukemia ip in BDF1 mice, survival T/C      104 % of control
7                           CCCCN=Cc1ccccc1  L1210 leukemia ip in BDF1 mice, survival T/C       90 % of control
8    Clc1ccc(C=NCCN=Cc2ccc(Cl)c(Cl)c2)cc1Cl  L1210 leukemia ip in BDF1 mice, survival T/C       98 % of control
9  Clc1ccccc1C=NCC1CCC(CN=Cc2ccccc2Cl)CC1 (stereo not given)  L1210 leukemia ip in BDF1 mice, survival T/C       90 % of control

The reported measurements were obtained from PubChem BioAssay AID248.
